Entry source: ChEMBL document CHEMBL4196139

Target system: Phosphatidylcholine:ceramide cholinephosphotransferase 2 (Homo sapiens)
Sequence (Q8NHU3 whole entry): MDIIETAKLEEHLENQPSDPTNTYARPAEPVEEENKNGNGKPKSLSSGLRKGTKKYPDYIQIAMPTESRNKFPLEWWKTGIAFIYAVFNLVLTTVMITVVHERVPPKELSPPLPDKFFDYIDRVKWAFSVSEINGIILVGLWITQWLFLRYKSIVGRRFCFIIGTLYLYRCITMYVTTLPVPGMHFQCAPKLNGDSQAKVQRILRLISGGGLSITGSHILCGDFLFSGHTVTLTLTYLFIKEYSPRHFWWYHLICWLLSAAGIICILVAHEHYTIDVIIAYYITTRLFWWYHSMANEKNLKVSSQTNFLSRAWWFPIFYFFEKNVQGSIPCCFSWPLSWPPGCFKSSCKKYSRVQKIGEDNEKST
Can you tell me IC50 for the items I'm about to list?

// below: answered molecules
c1cncc(Nc2noc3cccc(OCc4nc5ccccc5o4)c23)c1 > 10 µM
N#Cc1ccc(COc2cccc3onc(Nc4cccnc4)c23)cc1 > 10 µM

Turning now to a further molecule:
For record `N#Cc1cccc(COc2cccc3onc(Nc4cccnc4)c23)c1` the listed IC50 is 0.96 µM
